- target system: Protein cereblon/Dual specificity protein kinase TTK (Homo sapiens, UniProt P33981+Q96SW2)
- experiment summary: Protac activity at CRBN/TTK in human COLO 205 cells assessed as degradation of TTK measured after 6 hrs by Western blotting analysis
- Type: cell-based
- Sequence (P33981 whole entry): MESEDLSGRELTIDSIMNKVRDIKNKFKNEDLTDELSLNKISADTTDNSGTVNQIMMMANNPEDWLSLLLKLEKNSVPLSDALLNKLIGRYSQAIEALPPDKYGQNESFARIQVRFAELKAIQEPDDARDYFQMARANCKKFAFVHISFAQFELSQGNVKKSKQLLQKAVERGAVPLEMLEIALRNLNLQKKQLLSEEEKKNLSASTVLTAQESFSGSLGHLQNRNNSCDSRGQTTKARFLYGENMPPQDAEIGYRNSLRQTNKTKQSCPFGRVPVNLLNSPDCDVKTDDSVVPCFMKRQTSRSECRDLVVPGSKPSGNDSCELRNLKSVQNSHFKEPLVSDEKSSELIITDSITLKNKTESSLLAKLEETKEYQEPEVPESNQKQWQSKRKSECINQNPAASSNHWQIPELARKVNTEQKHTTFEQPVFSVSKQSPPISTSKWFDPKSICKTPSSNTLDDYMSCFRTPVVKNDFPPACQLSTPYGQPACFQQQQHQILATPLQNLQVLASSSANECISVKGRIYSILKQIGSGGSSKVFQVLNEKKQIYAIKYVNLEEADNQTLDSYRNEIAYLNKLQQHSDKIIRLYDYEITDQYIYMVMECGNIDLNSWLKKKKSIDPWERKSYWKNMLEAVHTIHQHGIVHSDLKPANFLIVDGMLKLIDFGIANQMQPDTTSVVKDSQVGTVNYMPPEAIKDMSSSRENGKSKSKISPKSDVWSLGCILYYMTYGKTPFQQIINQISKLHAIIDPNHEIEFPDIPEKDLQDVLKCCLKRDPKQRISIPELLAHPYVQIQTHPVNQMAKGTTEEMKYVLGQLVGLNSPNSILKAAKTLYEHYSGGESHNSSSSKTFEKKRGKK
- Sequence (Q96SW2 whole entry): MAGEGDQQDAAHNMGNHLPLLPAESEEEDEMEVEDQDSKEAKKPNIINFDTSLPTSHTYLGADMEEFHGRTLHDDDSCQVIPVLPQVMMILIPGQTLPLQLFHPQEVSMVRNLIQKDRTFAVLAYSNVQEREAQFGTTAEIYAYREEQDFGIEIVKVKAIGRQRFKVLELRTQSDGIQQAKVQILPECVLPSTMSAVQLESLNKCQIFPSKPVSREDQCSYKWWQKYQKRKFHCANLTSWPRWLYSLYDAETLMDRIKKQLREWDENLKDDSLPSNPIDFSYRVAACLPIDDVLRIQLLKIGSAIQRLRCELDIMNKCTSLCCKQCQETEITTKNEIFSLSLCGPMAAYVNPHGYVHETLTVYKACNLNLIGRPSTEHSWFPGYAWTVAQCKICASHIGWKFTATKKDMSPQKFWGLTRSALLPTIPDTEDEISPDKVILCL
property: DC50 (nM)

Below, 3 compounds whose answers are already recorded.
| compound | DC50, nM |
| --- | --- |
| CCC(=O)N[C@H]1CC[C@@H](n2c(=O)cc(C)c3cnc(Nc4ccc(N5CCN(C(=O)CCCCCCCC#Cc6cccc7c6CN(C6CCC(=O)NC6=O)C7=O)CC5)cc4OC)nc32)CC1 (stereo partly specified) | 7 |
| CCC(=O)N[C@H]1CC[C@@H](n2c(=O)cc(C)c3cnc(Nc4ccc(N5CCN(C(=O)CCCC#Cc6ccc7c(c6)C(=O)N(C6CCC(=O)NC6=O)C7)CC5)cc4OC)nc32)CC1 (stereo partly specified) | 3.3 |
| CCC(=O)N[C@H]1CC[C@@H](n2c(=O)cc(C)c3cnc(Nc4ccc(N5CCN(C(=O)CCCCCCCCCC#Cc6cccc7c6C(=O)N(C6CCC(=O)NC6=O)C7)CC5)cc4OC)nc32)CC1 (stereo partly specified) | 21.7 |

a. CCC(=O)N[C@H]1CC[C@@H](n2c(=O)cc(C)c3cnc(Nc4ccc(N5CCN(C(=O)CCCCCCCC#Cc6ccc7c(c6)CN(C6CCC(=O)NC6=O)C7=O)CC5)cc4OC)nc32)CC1 (stereo partly specified)
b. CCC(=O)N[C@H]1CC[C@@H](n2c(=O)cc(C)c3cnc(Nc4ccc(N5CCN(C(=O)CCCCCC#Cc6ccc7c(c6)CN(C6CCC(=O)NC6=O)C7=O)CC5)cc4OC)nc32)CC1 (stereo partly specified)
c. CCC(=O)N[C@H]1CC[C@@H](n2c(=O)cc(C)c3cnc(Nc4ccc(N5CCN(C(=O)CCCCCC#Cc6cccc7c6CN(C6CCC(=O)NC6=O)C7=O)CC5)cc4OC)nc32)CC1 (stereo partly specified)
**Q:** Would you mind ranking these compounds by ascending DC50? Give the labels in the order specified.
**A:** b, a, c
(b: 1.5 nM, a: 3 nM, c: 5 nM)

====

- experiment summary: AUC in Sprague-Dawley rat at 10 mg/kg, ip by LC-MS/MS analysis
- Assay type: ADME, organism-based
- Parameters: dose 10 mg/kg
- test settings: in vivo
property: AUC (ng·h/mL)

| compound | result unit | AUC |
| --- | --- | --- |
| CCC(=O)N[C@H]1CC[C@@H](n2c(=O)cc(C)c3cnc(Nc4ccc(N5CCN(C(=O)CCCCCC#Cc6ccc7c(c6)C(=O)N(C6CCC(=O)NC6=O)C7)CC5)cc4OC)nc32)CC1 (some centres not stated) | ng·h/mL | 2330 |
| CCC(=O)N[C@H]1CC[C@@H](n2c(=O)cc(C)c3cnc(Nc4ccc(N5CCN(C(=O)CCCC#Cc6ccc7c(c6)CN(C6CCC(=O)NC6=O)C7=O)CC5)cc4OC)nc32)CC1 (some centres not stated) | ng·h/mL | 2240 |

====

- target system: Protein cereblon/Dual specificity protein kinase TTK (Homo sapiens, UniProt P33981+Q96SW2)
- experiment summary: Protac activity at CRBN/TTK in human COLO 205 cells assessed as TTK degradation by measuring maximum degradation after 6 hrs by Western blotting analysis relative to control
- Type: cell-based
- Sequence (P33981 whole entry, looked up): as the sequence (P33981 whole entry) above
- Sequence (Q96SW2 whole entry, looked up): as the sequence (Q96SW2 whole entry) above
property: Emax (%)

| molecule | Emax / % |
| --- | --- |
| CCC(=O)N[C@H]1CC[C@@H](n2c(=O)cc(C)c3cnc(Nc4ccc(N5CCN(C(=O)CCCC#Cc6ccc7c(c6)C(=O)N(C6CCC(=O)NC6=O)C7)CC5)cc4OC)nc32)CC1 (stereo partly drawn) | 77 |
| CCC(=O)N[C@H]1CC[C@@H](n2c(=O)cc(C)c3cnc(Nc4ccc(N5CCN(C(=O)CCCCCC#Cc6cccc7c6C(=O)N(C6CCC(=O)NC6=O)C7)CC5)cc4OC)nc32)CC1 (stereo partly drawn) | 72 |
| CCC(=O)N[C@H]1CC[C@@H](n2c(=O)cc(C)c3cnc(Nc4ccc(N5CCN(C(=O)CCCCCCCCCC#Cc6ccc7c(c6)CN(C6CCC(=O)NC6=O)C7=O)CC5)cc4OC)nc32)CC1 (stereo partly drawn) | 85 |
| CCC(=O)N[C@H]1CC[C@@H](n2c(=O)cc(C)c3cnc(Nc4ccc(N5CCN(C(=O)CCCCCCCC#Cc6cccc7c6CN(C6CCC(=O)NC6=O)C7=O)CC5)cc4OC)nc32)CC1 (stereo partly drawn) | 84 |
| CCC(=O)N[C@H]1CC[C@@H](n2c(=O)cc(C)c3cnc(Nc4ccc(N5CCN(C(=O)CCCC#Cc6cccc7c6C(=O)N(C6CCC(=O)NC6=O)C7)CC5)cc4OC)nc32)CC1 (stereo partly drawn) | 64 |
| CCC(=O)N[C@H]1CC[C@@H](n2c(=O)cc(C)c3cnc(Nc4ccc(N5CCN(C(=O)CCCCCCCCCC#Cc6cccc7c6CN(C6CCC(=O)NC6=O)C7=O)CC5)cc4OC)nc32)CC1 (stereo partly drawn) | 87 |
| CCC(=O)N[C@H]1CC[C@@H](n2c(=O)cc(C)c3cnc(Nc4ccc(N5CCN(C(=O)CCCCCCCCCC#Cc6cccc7c6C(=O)N(C6CCC(=O)NC6=O)C7)CC5)cc4OC)nc32)CC1 (stereo partly drawn) | 88 |
| CCC(=O)N[C@H]1CC[C@@H](n2c(=O)cc(C)c3cnc(Nc4ccc(N5CCN(C(=O)CCCCCC#Cc6cccc7c6CN(C6CCC(=O)NC6=O)C7=O)CC5)cc4OC)nc32)CC1 (stereo partly drawn) | 76 |

Origin of values: ChEMBL document CHEMBL5038659
